tested system: Human acid ceramidase (hACR) (Homo sapiens, UniProt Q13510)
Construct: lysates of cells overexpressing acid ceramidase
Sequence (Q13510 22-395): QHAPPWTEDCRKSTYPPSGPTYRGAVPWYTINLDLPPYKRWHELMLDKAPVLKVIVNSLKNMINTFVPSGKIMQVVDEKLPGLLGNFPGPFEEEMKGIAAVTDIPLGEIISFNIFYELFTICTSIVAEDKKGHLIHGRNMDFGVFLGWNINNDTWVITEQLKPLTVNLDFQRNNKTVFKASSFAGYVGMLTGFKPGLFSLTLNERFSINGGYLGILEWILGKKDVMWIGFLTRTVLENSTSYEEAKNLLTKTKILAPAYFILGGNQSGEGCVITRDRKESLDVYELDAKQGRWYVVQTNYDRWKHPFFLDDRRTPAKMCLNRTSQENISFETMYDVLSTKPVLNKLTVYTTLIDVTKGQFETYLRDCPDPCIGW
protocol description: Acid ceramidase biochemical fluorescent assay (cell lysates overexpressing acid ceramidase, substrate Rbm14-12)
experimental parameters: 10 μg lysate protein, 1 hr preincubation at RT, pH 4.5, Rbm14-12 6.3 μM
Measured IC50, listed per entry.

These recorded examples may help you get a feel for the data.
CN1CCC(n2c(=O)oc3cc(C4CCN(C(=O)NCCCCc5ccccc5)CC4)ccc32)CC1    > 1000 nM
Cn1c(=O)oc2cc(N3CCN(C(=O)NCCCCc4ccccc4)C4(CC4)C3)ccc21    > 1000 nM
Cn1c(=O)oc2cc(C3CCN(C(=O)NCCC4CC4)CC3)ccc21    > 1000 nM
Cn1c(=O)oc2cc(N3CC4(CCN(C(=O)NCCCCc5ccccc5)CC4)C3)ccc21    > 1000 nM
CN1CCN(C(=O)NCCCCc2ccccc2)C(c2ccc3c(c2)oc(=O)n3C)C1 (stereo not drawn)    > 1000 nM
Cn1c(=O)oc2cc(C3CCN(C(=O)NCCCCC4CC4)C(C)(C)C3)ccc21 (stereo not drawn)    < 200 nM
C[C@H]1CN(c2ccc3c(c2)oc(=O)n3C)CCN1C(=O)NCCCCc1ccccc1    200 to 1000 nM
CN(C)CCn1c(=O)oc2cc(N3CCN(C(=O)NCCCCc4ccccc4)C(C)(C)C3)ccc21    < 200 nM
CCCCCNC(=O)N1CCC(c2ccc3c(c2)oc(=O)n3C)CC1(C)C (stereo not drawn)    < 200 nM
Cn1c(=O)oc2cc(N3CCC4(CC3)CN(C(=O)NCCCCc3ccccc3)C4)ccc21    > 1000 nM

IC50 in this record for Cn1c(=O)oc2cc(N3CCN(C(=O)NCCCCc4ccccc4)C(C)(C)C3=O)ccc21 : < 200 nM

IC50 in this record for Cn1c(=O)oc2cc(N3CC4CCC(C3)N4C(=O)NCCCCc3ccccc3)ccc21 : > 1000 nM

IC50 in this record for C[C@@H]1CC(c2ccc3c(c2)oc(=O)n3C)CCN1C(=O)NCCCCc1ccccc1 (mixture of isomers) : < 200 nM

IC50 in this record for C[C@@H]1CN(c2ccc3c(c2)oc(=O)n3C)CCN1C(=O)NCCCCc1ccccc1 : 200 to 1000 nM

###

protocol description: Compound solubility in water
Type: physicochemical
experimental parameters: read-out: Solubility in H2O
quantity measured: solubility (µM)

Cn1c(=O)oc2cc(C3CNCCN3C(=O)NCCCCc3ccccc3)ccc21 (centres unmarked)    241
Cn1c(=O)oc2cc(N3CCN(C(=O)NCCCCc4ccccc4)C(C)(C)C3)ccc21    0.3
Cn1c(=O)oc2ccc(C3CCN(C(=O)NCCCCc4ccccc4)CC3)cc21    15
C[C@@H]1CN(c2ccc3c(c2)oc(=O)n3C)CCN1C(=O)NCCCCc1ccccc1    4.3
CCCCCNC(=O)N1C(c2ccc3c(c2)oc(=O)n3C)COCC1(C)C (centres unmarked)    69.1

P: CC(C)CNC(=O)N1CCC(c2cccc3c2oc(=O)n3C)CC1
Q: C[C@H]1CC(c2ccc3c(c2)oc(=O)n3C)CCN1C(=O)NCCCCc1ccccc1 (mixture of isomers)
Task item: Larger number for solubility: P , or Q ? Answer = label.
Reply: P
(P: 143 µM, Q: 10 µM)

A: Cn1c(=O)oc2cc(C3CCN(C(=O)NCCCCC4CC4)C(C)(C)C3)ccc21 (centres unmarked)
B: CCCCCNC(=O)N1CCN(c2ccc3c(c2)oc(=O)n3C)CC1(C)C
C: CN(C)CCn1c(=O)oc2cc(N3CCN(C(=O)NCCCCc4ccccc4)C(C)(C)C3)ccc21
Task item: Order each entry by recorded solubility, climbing from the minimum. Provide your answer as the labels ordered per the instruction.
Reply: A, B, C
(A: 0.3 µM, B: 2.4 µM, C: 41.8 µM)

###

Measured IC50, listed per entry.
tested system: Human acid ceramidase (hACR) (Homo sapiens, UniProt Q13510)
Construct: lysates of cells overexpressing acid ceramidase
protocol description: Acid ceramidase biochemical fluorescent assay (cell lysates overexpressing acid ceramidase, substrate Rbm14-12)
experimental parameters: 10 μg lysate protein, 1 hr preincubation at RT, pH 4.5, Rbm14-12 6.3 μM

These recorded examples may help you get a feel for the data.
CN1CCN(C(=O)NCCCCc2ccccc2)CC1c1ccc2c(c1)oc(=O)n2C (centres unmarked) [Example 41]    > 1000 nM
Cn1c(=O)oc2cc(C3COCC(C)(C)N3C(=O)NCCCCc3ccccc3)ccc21 (centres unmarked) [Example 42]    < 200 nM
Cn1c(=O)oc2cc(C3CCN(C(=O)NC4CCCCC4)CC3)ccc21 [Example 5]    > 1000 nM
C[C@@H]1CC(c2ccc3c(c2)oc(=O)n3C)CCN1C(=O)NCCc1ccccc1 (mixture of isomers) [Example 18]    200 to 1000 nM
Cn1c(=O)oc2cc(N3CCN(C(=O)NCCC4CC4)C(C)(C)C3)ccc21 [Example 53]    > 1000 nM

IC50 in this record for Cn1c(=O)oc2c(C3CCN(C(=O)NCCCCc4ccccc4)CC3)cccc21 [Example 7] : > 1000 nM

IC50 in this record for Cn1c(=O)oc2cc(N3CCC4(CCN(C(=O)NCCCCc5ccccc5)CC4)CC3)ccc21 [Example 71] : > 1000 nM

IC50 in this record for Cn1c(=O)oc2cc(N3CCN(C(=O)NCCCCc4ccccc4)CC3)ccc21 [Example 46] : 200 to 1000 nM

###

tested system: Human acid ceramidase (hACR) (Homo sapiens, UniProt Q13510)
Construct: lysates of cells overexpressing acid ceramidase
protocol description: Acid ceramidase biochemical fluorescent assay (cell lysates overexpressing acid ceramidase, substrate Rbm14-12)
experimental parameters: 10 μg lysate protein, 1 hr preincubation at RT, pH 4.5, Rbm14-12 6.3 μM
pIC50: −log10 of the molar value.
quantity measured: pIC50

These recorded examples may help you get a feel for the data.
Cn1c(=O)oc2cc(N3CCN(C(=O)NCCCCc4ccccc4)C(C)(C)C3)ccc21 [Example 50]    > 6.70
Cn1c(=O)oc2cc(N3CCN(C(=O)NCCOCc4ccccc4)C(C)(C)C3)ccc21 [Example 57]    6.00 to 6.70
Cn1c(=O)oc2cc(C3COCCN3C(=O)NCCCCc3ccccc3)ccc21 (stereo not shown) [Example 38]    < 6.00

Now look at this one.
pIC50 in this record for Cn1c(=O)oc2cc(C3CCN(C(=O)NCCOCc4ccccc4)C(C)(C)C3)ccc21 (stereo not shown) [Example 27] : > 6.70

###

tested system: Human acid ceramidase (hACR) (Homo sapiens)
Construct: lysates of cells overexpressing acid ceramidase
protocol description: Acid ceramidase biochemical fluorescent assay (cell lysates overexpressing acid ceramidase, substrate Rbm14-12)
experimental parameters: 10 μg lysate protein, 1 hr preincubation at RT, pH 4.5, Rbm14-12 6.3 μM
Description: The ability of exemplary compounds to inhibit acid ceramidase was measured. Cell lysates overexpressing acid ceramidase were used as the enzyme source for compound potency determination in a biochemical fluorescent assay. […] Finally the plate was read with SpectraMax i3 plate reader (Molecular Devices) at ex360 nm and em446 nm. […]
quantity measured: IC50

These recorded examples may help you get a feel for the data.
CC(C)CNC(=O)N1CCC(c2cccc3c2oc(=O)n3C)CC1 [Example 8]    > 1000 nM
O=C(NCCCCc1ccccc1)N1CCN(c2ccc3[nH]c(=O)oc3c2)CC1 [Example 45]    > 1000 nM
CCOCCNC(=O)N1CCCC(c2ccc3c(c2)oc(=O)n3C)C1 (stereo not shown) [Example 14]    > 1000 nM

IC50 in this record for Cn1c(=O)oc2cc(C3CCCN3C(=O)NCCCCc3ccccc3)ccc21 (stereo not shown) [Example 44] : > 1000 nM

IC50 in this record for CCCCCNC(=O)N1CCN(c2ccc3c(c2)oc(=O)n3C)CC1(C)C [Example 54] : 200 to 1000 nM

IC50 in this record for COCCCNC(=O)N1CCC(c2ccc3c(c2)oc(=O)n3C)CC1(C)C (stereo not shown) [Example 30] : > 1000 nM

IC50 in this record for CN(C)CCn1c(=O)oc2cc(C3CCN(C(=O)NCCCCc4ccccc4)C(C)(C)C3)ccc21 (stereo not shown) [Example 32] : < 200 nM

###

tested system: Human acid ceramidase (hACR) (Homo sapiens)
Construct: lysates of cells overexpressing acid ceramidase
protocol description: Acid ceramidase biochemical fluorescent assay (cell lysates overexpressing acid ceramidase, substrate Rbm14-12)
experimental parameters: 10 μg lysate protein, 1 hr preincubation at RT, pH 4.5, Rbm14-12 6.3 μM
pIC50: −log10 of the molar value.
Measured pIC50, listed per entry.

CC(C)CNC(=O)N1CCC(c2ccc3c(c2)oc(=O)n3C)CC1 [Example 3]    < 6.00
Cn1c(=O)oc2cc(C3CCN(C(=O)NCCCc4ccccc4)C(C)(C)C3)ccc21 (stereo not shown) [Example 26]    > 6.70
CC1(C)CC(c2ccc3[nH]c(=O)oc3c2)CCN1C(=O)NCCCCc1ccccc1 (stereo not shown) [Example 23]    > 6.70
Cn1c(=O)oc2cc(C3CCN(C(=O)NCCCCc4ccccc4)C(=O)C3)ccc21 (stereo not shown) [Example 35]    < 6.00
O=C(NCCCCc1ccccc1)N1CCCC(c2ccc3[nH]c(=O)oc3c2)C1 (stereo not shown) [Example 11]    < 6.00
Cn1c(=O)oc2ccc(C3CCN(C(=O)NCCCCc4ccccc4)CC3)cc21 [Example 9]    < 6.00
CC1CC(c2ccc3c(c2)oc(=O)n3C)CCN1C(=O)NCCCCc1ccccc1 (mixture of isomers) [Example 16]    > 6.70
COCCCNC(=O)N1CCN(c2ccc3c(c2)oc(=O)n3C)CC1(C)C [Example 56]    < 6.00
C[C@H]1CC(c2ccc3c(c2)oc(=O)n3C)CCN1C(=O)NCCCCc1ccccc1 (mixture of isomers) [Example 20]    > 6.70
O=C(NCCCCc1ccccc1)N1CCC(c2ccc3[nH]c(=O)oc3c2)CC1 [Example 1]    6.00 to 6.70

pIC50 in this record for O=C(NCCCCc1ccccc1)N1CCC2(CC1)CN(c1ccc3[nH]c(=O)oc3c1)C2 [Example 69] : < 6.00
